- System: LOX IMVI melanoma
- experiment_notes: NCI tumour cell line growth inhibition, 48 h
Each item that follows carries a reported TGI.
A number alone suffices; assume µM.

- compound: "C=CCNC1=C2C[C@@H](C)C[C@@H](OC)C(OC(=O)CCCN(C)C)[C@H](C)/C=C(\\C)[C@@H](OC(N)=O)[C@H](OC)/C=C\\C=C(/C)C(=O)NC(=CC1=O)C2=O (some centres undefined)"
  unit_descriptor: "µM"
  reported_measurement: 21.7

Turning now to a further compound:
Query: Fill in: TGI of COc1ccc2oc(S(=O)(=O)N3CC(CCl)c4ccc([N+](=O)[O-])cc43)cc2c1 (centres undefined) is ___
Reply: 1.38

* * *

- Tested on: U251 CNS
Hi there, use one of these labels in your reply, thanks! Yes for active, No for inactive

- molecule: "COc1ccc([C@H]2c3cc(OC)c(OC)cc3C=C(C=O)C2CO)cc1OC (stereo not given in full)"
  label_class: "No"
- molecule: "CCc1cc(C(N)=O)ccc1-n1nc(C(C)C)c2c(-n3cnc(-c4cnn(C)c4)c3)ccnc21"
  label_class: "No"
- molecule: "COc1ccc(C(=O)c2cc3c(N)c(C(=O)Nc4cccc(Cl)c4)sc3nc2C)cc1"
  label_class: "No"

Query: # outcome recorded in this test, key = Cc1cc(Cl)n2c(nc3ccccc32)c1C#N
Reply: No

Query: Same question, COc1ccc(CN2CCc3c(Cl)nc(N)nc3C2=O)c(OC)c1 this time
Reply: No

Query: Same question, Cc1nc2c(cnn2-c2ccnc3c(C(F)(F)F)cccc23)c(=O)o1 this time
Reply: No

Query: Same question, O=c1ccc2nc(-c3ccccc3)nn(-c3ccccc3)c-2c1 this time
Reply: No

* * *

Each item that follows carries a reported TGI.
- System: 786-0 renal
- experiment_notes: NCI tumour cell line growth inhibition, 48 h

- compound: "O=C(O)Cc1ccc(Oc2nc3ccccc3nc2-c2cccs2)cc1"
  subject_of_test: "786-0 renal"
  TGI: "> 100 µM"
- compound: "O=C1CCCC1C(=O)Nc1ccc2ccccc2c1 (stereo unspecified)"
  subject_of_test: "786-0 renal"
  TGI: "> 100 µM"
- compound: "C=C1C(=O)OC2C1C(OC(=O)/C(=C/C)COC(C)=O)CC1(CO1)C1C(OC(=O)/C(=C/C)CO)C=C(C)C21 (stereo unspecified)"
  subject_of_test: "786-0 renal"
  TGI: "3.09 µM"

Turning now to a further compound:
Query: I'm curious: which TGI was measured for COc1ccc(C2SC(N)=Nc3c2c(C)nn3C(=O)c2ccncc2)cc1 (stereo unspecified) tested on 786-0 renal?
Reply: > 100 µM

* * *

- System: OVCAR-3 ovarian
- experiment_notes: NCI tumour cell line growth inhibition, 48 h
measure_name: TGI (µM)
A number alone suffices; assume µM.

For orientation, consider the following solved cases.
- molecule: "COC(=O)C1=C(C)N2CCCOC2(C)C(C(=O)OC)C1c1cccc(Cl)c1 (stereo not given)"
  reported_measurement: 70.8
- molecule: "COc1ccc(CN2CCc3c(Cl)nc(N)nc3C2=O)c(OC)c1"
  reported_measurement: 29.8
- molecule: "C=CCNC1=C2C[C@@H](C)C[C@@H](OC)C(OC(=O)CCCN(C)C)[C@H](C)/C=C(\\C)[C@@H](OC(N)=O)[C@H](OC)/C=C\\C=C(/C)C(=O)NC(=CC1=O)C2=O (stereo not given in full)"
  reported_measurement: 11.7

Query: Fill in: TGI of COc1ccc([C@H]2c3cc(OC)c(OC)cc3C=C(C=O)C2CO)cc1OC (stereo not given in full) is ___
Reply: 4.87

* * *

- System: HS 578T breast
- experiment_notes: NCI tumour cell line growth inhibition, 48 h; in the data active = GI50 below about 0.43 µM; inactive = the rest
Hi there, use one of these labels in your reply, thanks! yes (1) (active), no (0) (inactive)

For orientation, consider the following solved cases.
- molecule: "CCN1CCN(C(=O)[C@]23CC[C@@H](C)[C@H](C)[C@@H]2C2=CC[C@@H]4[C@@]5(C)C/C(=C/c6cccnc6)C(=O)C(C)(C)[C@@H]5CC[C@@]4(C)[C@]2(C)CC3)CC1"
  label_class: "no (0)"
- molecule: "COc1ccc([C@H]2c3cc(OC)c(OC)cc3C=C(C=O)C2CO)cc1OC (stereo not given in full)"
  label_class: "no (0)"
- molecule: "CCOC(=O)c1cnc2ccc(Cl)cc2c1NCCCN(C)C"
  label_class: "no (0)"
- molecule: "CCc1nc(N)nc(N)c1-c1ccc(Cl)cc1"
  label_class: "no (0)"
- molecule: "CC(=O)O[C@@H]1C=CC(=O)C2(CC(=O)O[C@@H]2/C=C(\\C)CCC=C(C)C)C1 (stereo not given in full)"
  label_class: "no (0)"
- molecule: "Cc1cc(O)c2c(c1)C[C@@H](O)C1=C2C(=O)c2c(O)ccc(OC3CC(O)C(OC4CC(OC5CCC(OC6CC(O)C(OC7CC(OC8CCC(O)C(C)O8)C(O)C(C)O7)C(C)O6)C(C)O5)C(O)C(C)O4)C(C)O3)c2C1=O (stereo not given in full)"
  label_class: "no (0)"

Query: # outcome recorded in this test, key = COc1ccc(NC(=O)c2ccc(NC3=C(Cl)C(=O)N(Cc4ccccc4)C3=O)cc2)cc1
Reply: no (0)

Query: Same question, FC(F)(F)c1ccc2nc(-c3nc(-c4ccccc4)n4ccccc34)[nH]c2c1 this time
Reply: no (0)

Query: Same question, O=C1CCC/C=C\C[C@H]2C=C(Cl)C(=O)/C2=C/C[C@H](CCCCC(F)(F)F)OC(=O)CCC/C=C\C[C@H]2C=C(Cl)C(=O)/C2=C/C[C@H](CCCCC(F)(F)F)O1 this time
Reply: yes (1)

* * *

- Tested on: HOP-92 NSCLC
- experiment_notes: NCI tumour cell line growth inhibition, 48 h
measure_name: TGI

For orientation, consider the following solved cases.
- compound: "C1=C[C@@H]2c3ccc4cnccc4c3NC[C@@H]2C1"
  reported_measurement: "> 100 µM"
- compound: "COc1cc(-c2cc(-c3ccc(N(C)C)cc3)nc(N3CCC(O)CC3)c2C#N)cc(OC)c1OC"
  reported_measurement: "0.788 µM"
- compound: "Nc1nc2nc3c(nc2c(=O)[nH]1)CN(c1ccc(C(=O)O)cc1)C3=O"
  reported_measurement: "> 100 µM"
- compound: "CN1CCC(O)C(CNC23CC4CC(CC(C4)C2)C3)C1 (stereo unspecified)"
  reported_measurement: "> 100 µM"
- compound: "Cc1cccc2c1C(=O)C1(Cc3ccccc3C1=O)C2 (stereo unspecified)"
  reported_measurement: "> 100 µM"

Turning now to a further compound:
Query: I'm curious: which TGI was measured for O=C(CCc1cccc(O)c1)NCCc1cccc(O)c1 tested on HOP-92 NSCLC?
Reply: > 100 µM

* * *

- System: KM12 colon
- experiment_notes: NCI tumour cell line growth inhibition, 48 h; in the data active = GI50 below about 0.43 µM; inactive = the rest
Hi there, use one of these labels in your reply, thanks! y (active), n (inactive)

For orientation, consider the following solved cases.
- compound: "Clc1ccc(Cl)c(N/N=C\\c2c[nH]c3ccccc23)c1"
  label_class: "n"
- compound: "COc1ccc(CN2CCc3c(Cl)nc(N)nc3C2=O)c(OC)c1"
  label_class: "n"
- compound: "COc1ccc(C(=O)/C=C/c2ccc(Cl)cc2)cc1S(N)(=O)=O"
  label_class: "n"
- compound: "COc1ccc(C(=O)c2cc3c(N)c(C(=O)Nc4cccc(Cl)c4)sc3nc2C)cc1"
  label_class: "n"
- compound: "Cc1ncc(C(=O)Nc2ccc(CN3CCN(C)CC3)c(C(F)(F)F)c2)cc1C#Cc1c(N)ncc2ccc(C#N)cc12"
  label_class: "y"

Query: # outcome recorded in this test, key = O=C1CCC/C=C\C[C@H]2C=C(Cl)C(=O)/C2=C/C[C@H](CCCCC(F)(F)F)OC(=O)CCC/C=C\C[C@H]2C=C(Cl)C(=O)/C2=C/C[C@H](CCCCC(F)(F)F)O1
Reply: y

Query: Same question, C(=N\Nc1ncc(-c2cc3cc4c(cc3o2)OCO4)s1)/c1c[nH]c2ccccc12 this time
Reply: n

Query: Same question, COc1ccc([C@H]2c3cc(OC)c(OC)cc3C=C(C=O)C2CO)cc1OC (some centres undefined) this time
Reply: n

Query: Same question, CC(=O)O[C@@H]1C=CC(=O)C2(CC(=O)O[C@@H]2/C=C(\C)CCC=C(C)C)C1 (some centres undefined) this time
Reply: n

Query: Same question, COc1cc([C@@H]2c3cc4c(cc3[C@H](OC3OC5COC(c6ccccc6)OC5C(O)C3O)[C@H]3COC(=O)[C@H]23)OCO4)cc(OC)c1OC (some centres undefined) this time
Reply: y

Query: Same question, FC(F)(F)c1ccc2nc(-c3nc(-c4ccccc4)n4ccccc34)[nH]c2c1 this time
Reply: n

Query: Same question, COC12C=C/C(=C(/C(=O)OCc3ccncn3)C(=O)CCCCCCCCC3(OC)C=C/C(=C(/C(=O)OCc4ccncn4)C(=O)CCCCCCCC1)O3)O2 this time
Reply: y

Query: Same question, COc1cc(-c2cc(-c3ccc(N(C)C)cc3)nc(N3CCC(O)CC3)c2C#N)cc(OC)c1OC this time
Reply: n

Query: Same question, C#Cc1cccc(NC(=O)Nc2ccccc2NC(=O)CCl)c1 this time
Reply: n

src = PubChem BioAssay (NCI)
